Cited source: PubChem BioAssay AID1159580

# Protocol Notes: chemical genetic growth profiling, strain panel (AID 1159580);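 also: tested at 20 µM; growth read once vehicle control cultures reached saturation at 30 °C; 1 = growth at the plate median or of vehicle wells; lower values mean less growth of the strain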
# Test Context: S. cerevisiae deletion strains, growth OD, locus YKL009W, strain mrt4
The campaign covered roughly 5,500 compounds. About 2,000 (36%) were called active. About 18% were inconclusive and are not listed. Rule as the data show it: active = normalized growth mostly below about 0.91 (no sharp cut-off); inconclusive = no clear call, values can overlap the other calls; inactive = mostly above about 0.92. This is one part of the list.
Permitted responses: Y for active, N for inactive

Example entries begin here.
COc1cc2c(cc1-c1cc3cc4ccoc4cc3oc1=O)OCO2: Y
CCC(=O)Nc1ccc(Cl)c(Cl)c1: N

Kindly consider the entry below.
Lookup: Name the outcome recorded for `CCCC(CCC)C(=O)O` in the assay.
Found: N

* * *

compounds and their reported normalized growth
# Protocol Notes: chemical genetic growth profiling, strain panel (AID 1159580);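 also: tested at 20 µM; growth read once vehicle control cultures reached saturation at 30 °C; 1 = growth at the plate median or of vehicle wells; lower values mean less growth of the strain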
# Test Context: S. cerevisiae deletion strains, growth OD, locus YHR027C, strain rpn1, stronger effect = lower value
Hit rate of the full screen: of about 5,500 compounds, about 2,000 (36%) were called active. Roughly 18% stayed inconclusive and do not appear here. Some of the results follow.

These solved cases illustrate the format of a correct answer.
Clc1ccc2c(c1)C(N1CCNCC1)=Nc1ccccc1O2: 0.989 (inactive)
C=C1C(C2(C)C=CC(=O)C(C)(C)C2CC(=O)OC)CC[C@@]2(C)[C@H](c3ccoc3)OC(=O)C3OC132 (stereo partly specified): 0.972 (inactive)
CN(C)N=Nc1nc[nH]c1C(N)=O: 0.967 (inactive)
C=C1C2CC[C@@]3(C)[C@H](c4ccoc4)OC(=O)C[C@]13O[C@H]1CC(=O)C(C)(C)C(CC(=O)OC)[C@@]21C (stereo partly specified): 0.985 (inactive)
CC(CN(C)C)CN1c2ccccc2Sc2ccccc21 (stereo unspecified): 1.05 (inactive)

Please turn your attention to the following entry.
Lookup: Need normalized growth of `COc1c(Cl)ccc(Cl)c1C(=O)O` , thanks.
Found: 0.995 (inactive)
